- Procedure text: Mouse pharmacokinetics
- Type: in vivo, female C57Bl/6 mice
- Conditions used: female, C57Bl/6, mouse, whole blood; single rising oral dose, 30 mg/kg; read-out: AUC at 30 mg/kg oral (converted)
Measure: AUC (ng·h/mL)
The response must be a number in ng·h/mL with no trailing unit.

Sure, the documented AUC for O=C(CSc1nc2ccccc2c(=O)[nH]1)NC1CCC(F)(F)CC1 is 2190

====

Parameter: pIC50. Scope: all listed entries.
- System name: recombinant MBP-MtNdh (MTb NDH-2) (Mycobacterium tuberculosis, UniProt P95160)
- Construct: The ORF corresponding to Rv1854c was codon optimized for E. coli; made in house; host or cells: E. coli BL21 (DE3) pLysS
- Sequence (P95160 whole entry): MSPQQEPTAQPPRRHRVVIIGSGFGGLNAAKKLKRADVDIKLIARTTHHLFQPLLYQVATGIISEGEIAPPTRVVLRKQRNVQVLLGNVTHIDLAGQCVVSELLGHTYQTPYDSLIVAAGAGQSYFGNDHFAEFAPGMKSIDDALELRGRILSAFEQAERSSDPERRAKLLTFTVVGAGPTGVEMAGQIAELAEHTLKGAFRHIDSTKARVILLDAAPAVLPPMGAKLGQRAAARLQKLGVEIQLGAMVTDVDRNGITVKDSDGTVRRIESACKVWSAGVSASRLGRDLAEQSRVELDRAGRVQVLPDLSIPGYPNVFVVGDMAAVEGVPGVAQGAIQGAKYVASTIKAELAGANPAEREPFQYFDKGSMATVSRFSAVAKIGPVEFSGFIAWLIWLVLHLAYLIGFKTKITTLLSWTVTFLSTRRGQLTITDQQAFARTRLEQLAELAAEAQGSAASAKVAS
- Procedure text: Ndh activity assay (NADH oxidation at 340 nm)
- Type: biochemical
- Conditions used: NADH 250 μM, Q2 40 μM; mean ± SD, Figure 6 inset; read-out: IC50 against MBP-MtNdh
FYI, pIC50 means -log10 of a concentration in mol per litre.

Past entries and their recorded results:
compound=O=C(CSc1nc2ccccc2c(=O)[nH]1)NCc1ccccc1 observed_value=6.29
compound=O=C(CSc1nc2ccccc2c(=O)[nH]1)NC1CCCCC1 observed_value=7.64
compound="CN(C)CCCN1c2ccccc2Sc2ccc(Cl)cc21 [CPZ, chlorpromazine, reference compound]" observed_value=4.60
compound=O=C(CSc1nc2ccccc2c(=O)[nH]1)NC1CCC(F)(F)CC1 observed_value=8.18
compound=Cc1csc2nc(SCC(=O)NC3CCCCC3)[nH]c(=O)c12 observed_value=6.68

The compound O=C(CSc1nc2ccccc2c(=O)[nH]1)NCC1CCC(F)(F)CC1 showed pIC50 equal to 7.59
